target: HiBit-BRG1 fusion protein in stable HeLa cell line expressing HiBit-BRG1 and LgBit (Homo sapiens, UniProt P51532); construct: expressed in transfected cells; experiment: HiBiT-BRG1 cell-based degradation assay (Nano-Glo HiBiT, 24 h); conditions: HeLa HiBit-BRG1/LgBit cells, top dose 30 μM, read-out: BRG1 HiBit Degradation Maximum (%)
Sequence (P51532 whole entry, the tested form may be a part): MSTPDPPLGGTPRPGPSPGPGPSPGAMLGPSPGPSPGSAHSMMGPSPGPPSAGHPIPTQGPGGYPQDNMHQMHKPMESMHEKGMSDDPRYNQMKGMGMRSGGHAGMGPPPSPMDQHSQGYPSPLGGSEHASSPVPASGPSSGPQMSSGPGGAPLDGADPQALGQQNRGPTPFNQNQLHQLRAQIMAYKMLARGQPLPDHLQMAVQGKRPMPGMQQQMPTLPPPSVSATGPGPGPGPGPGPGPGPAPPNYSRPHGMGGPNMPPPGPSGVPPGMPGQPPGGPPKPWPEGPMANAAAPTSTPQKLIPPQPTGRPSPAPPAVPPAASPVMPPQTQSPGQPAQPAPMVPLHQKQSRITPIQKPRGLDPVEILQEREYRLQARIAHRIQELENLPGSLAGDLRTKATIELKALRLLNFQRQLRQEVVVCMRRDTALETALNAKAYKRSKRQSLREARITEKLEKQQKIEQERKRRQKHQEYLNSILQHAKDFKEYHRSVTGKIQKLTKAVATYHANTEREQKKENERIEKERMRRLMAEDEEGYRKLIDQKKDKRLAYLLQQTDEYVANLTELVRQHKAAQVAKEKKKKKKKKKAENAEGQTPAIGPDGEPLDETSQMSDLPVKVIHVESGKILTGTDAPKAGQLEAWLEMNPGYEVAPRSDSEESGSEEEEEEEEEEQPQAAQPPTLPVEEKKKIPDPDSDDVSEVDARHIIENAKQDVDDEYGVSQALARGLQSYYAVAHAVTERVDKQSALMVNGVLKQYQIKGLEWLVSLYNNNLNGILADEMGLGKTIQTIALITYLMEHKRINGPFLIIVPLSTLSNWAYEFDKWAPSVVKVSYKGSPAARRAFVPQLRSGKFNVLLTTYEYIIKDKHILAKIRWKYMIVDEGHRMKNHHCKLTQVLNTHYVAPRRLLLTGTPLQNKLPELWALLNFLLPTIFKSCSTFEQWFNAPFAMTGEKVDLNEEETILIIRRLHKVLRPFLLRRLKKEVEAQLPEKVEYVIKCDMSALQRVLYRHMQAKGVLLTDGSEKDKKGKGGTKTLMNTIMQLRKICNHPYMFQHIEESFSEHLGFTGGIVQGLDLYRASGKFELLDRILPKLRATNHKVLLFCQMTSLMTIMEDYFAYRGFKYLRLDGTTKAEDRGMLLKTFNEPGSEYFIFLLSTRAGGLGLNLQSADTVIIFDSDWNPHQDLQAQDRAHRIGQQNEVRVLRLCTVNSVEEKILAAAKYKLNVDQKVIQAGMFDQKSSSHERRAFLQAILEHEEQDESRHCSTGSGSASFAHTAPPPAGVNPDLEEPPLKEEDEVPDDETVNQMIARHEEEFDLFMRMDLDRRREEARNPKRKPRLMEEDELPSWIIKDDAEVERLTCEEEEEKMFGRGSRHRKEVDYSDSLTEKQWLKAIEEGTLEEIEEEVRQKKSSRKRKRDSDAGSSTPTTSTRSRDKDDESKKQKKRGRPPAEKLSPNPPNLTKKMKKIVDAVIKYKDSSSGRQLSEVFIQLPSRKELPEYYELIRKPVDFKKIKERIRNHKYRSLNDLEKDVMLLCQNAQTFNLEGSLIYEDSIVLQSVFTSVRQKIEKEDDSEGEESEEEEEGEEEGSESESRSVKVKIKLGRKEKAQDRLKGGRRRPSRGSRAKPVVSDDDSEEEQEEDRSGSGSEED
# Dmax per entry

{"Test Smiles": "COc1cc2cc(-c3ccccc3O)nnc2cc1N1CC2(CN(c3cc([C@H](C(=O)N4C[C@H](O)C[C@H]4C(=O)N[C@@H](C)c4ccc(-c5scnc5C)cc4)C(C)C)on3)C2)C1", "Dmax": "> 75%"}
{"Test Smiles": "Cc1ncsc1-c1ccc([C@H](C)NC(=O)[C@@H]2C[C@@H](O)CN2C(=O)[C@H](C(C)C)n2cc(N3CC4(CN(c5ccc6nnc(-c7ccccc7O)cc6c5)C4)C3)nn2)cc1", "Dmax": "> 50%"}
{"Test Smiles": "Cc1ncsc1-c1ccc([C@H](C)NC(=O)[C@@H]2C[C@@H](O)CN2C(=O)[C@H](c2cc(-c3cnc(N4CC(c5cc6nnc(-c7ccccc7O)cc6cc5Cl)C4)nc3)no2)C(C)C)cc1", "Dmax": "< 50%"}

====

target: HiBit-BRG1 fusion protein in stable HeLa cell line expressing HiBit-BRG1 and LgBit (Homo sapiens, UniProt P51532); construct: expressed in transfected cells; assay: HiBiT-BRG1 cell-based degradation assay (Nano-Glo HiBiT, 24 h); conditions: HeLa HiBit-BRG1/LgBit cells, read-out: BRMG1 HiBit Degradation IC50
Recorded DC50 for the following compounds

{"Compound": "Cc1ncsc1-c1ccc([C@H](C)NC(=O)[C@@H]2C[C@@H](O)CN2C(=O)C(C(C)C)n2cc(N3CCC4(CC3)CN(c3ccc5cc(-c6ccccc6O)nnc5c3)C4)nn2)cc1 (stereo partly drawn)", "DC50": "< 0.01 µM"}
{"Compound": "Cc1ncsc1-c1ccc([C@H](C)NC(=O)[C@@H]2C[C@@H](O)CN2C(=O)[C@@H](c2cc(N3CC4(CCN(c5ccc6cc(-c7ccccc7O)nnc6c5)CC4(F)F)C3)no2)C(C)C)cc1", "DC50": "< 0.01 µM"}
{"Compound": "Cc1cc2nnc(-c3ccccc3O)cc2cc1-c1cc([C@H](C(=O)N2C[C@H](O)C[C@H]2C(=O)N[C@@H](C)c2ccc(-c3scnc3C)cc2)C(C)C)on1", "DC50": "> 0.01 µM"}

====

DC50 values, listed per item
molecular target: HiBit-BRG1 fusion protein in stable HeLa cell line expressing HiBit-BRG1 and LgBit (Homo sapiens); construct: expressed in transfected cells; experiment: HiBiT-BRG1 cell-based degradation assay (Nano-Glo HiBiT, 24 h); conditions: HeLa HiBit-BRG1/LgBit cells, read-out: BRMG1 HiBit Degradation IC50

{"Compound": "Cc1ncsc1-c1ccc([C@H](C)NC(=O)[C@@H]2C[C@@H](O)CN2C(=O)[C@@H](c2cc(-c3ccnc(N4CCC(c5ccc6cc(-c7ccccc7O)nnc6c5)CC4)n3)no2)C(C)C)cc1", "DC50": "> 10 nM"}
{"Compound": "Cc1ncsc1-c1ccc([C@H](C)NC(=O)[C@@H]2C[C@@H](O)CN2C(=O)[C@@H](c2cc(N3CCC[C@H](c4ccc5cc(-c6ccccc6O)nnc5c4)C3)no2)C(C)C)cc1", "DC50": "< 10 nM"}
{"Compound": "Cc1ncsc1-c1ccc([C@H](C)NC(=O)[C@@H]2C[C@@H](O)CN2C(=O)[C@@H](c2cc(-c3cnc(N4CCN(c5ccc6nnc(-c7ccccc7O)cc6c5)CC4)nc3)no2)C(C)C)cc1", "DC50": "< 10 nM"}
{"Compound": "Cc1ncsc1-c1ccc([C@H](C)NC(=O)[C@@H]2C[C@@H](O)CN2C(=O)[C@@H](c2cc(N3CC4(C3)CN(c3cc5nnc(-c6ccccc6O)cc5cc3OC(F)F)C4)no2)C(C)C)cc1", "DC50": "> 10 nM"}
{"Compound": "Cc1ncsc1-c1ccc([C@H](C)NC(=O)[C@@H]2C[C@@H](O)CN2C(=O)[C@H](c2cc(-c3cnc(N4CCN(c5ccc6nnc(-c7ccccc7O)cc6c5)CC4)nc3)no2)C(C)C)cc1", "DC50": "> 100 nM"}
{"Compound": "Cc1ncsc1-c1ccc([C@H](C)NC(=O)[C@@H]2C[C@@H](O)CN2C(=O)[C@@H](c2cc(N3CCC(Oc4ccc5nnc(-c6ccccc6O)cc5c4)CC3)no2)C(C)C)cc1", "DC50": "> 10 nM"}
{"Compound": "Cc1ncsc1-c1ccc([C@H](C)NC(=O)[C@@H]2C[C@@H](O)CN2C(=O)C(C(C)C)n2cc(N3CCC4(CCN(c5ccc6nnc(-c7ccccc7O)cc6c5)CC4)C3)nn2)cc1 (stereo partly shown)", "DC50": "> 10 nM"}
{"Compound": "Cc1ncsc1-c1ccc([C@H](C)NC(=O)[C@@H]2C[C@@H](O)CN2C(=O)C(C(C)C)n2cc(N3CCC4(CC3)CCN4c3ccc4nnc(-c5ccccc5O)cc4c3)nn2)cc1 (stereo partly shown)", "DC50": "> 10 nM"}
{"Compound": "Cc1ncsc1-c1ccc([C@H](C)NC(=O)[C@@H]2C[C@@H](O)CN2C(=O)[C@@H](c2cc(N3CCC(C(=O)N4CC(c5ccc6cc(-c7ccccc7O)nnc6c5)C4)CC3)no2)C(C)C)cc1", "DC50": "> 10 nM"}
{"Compound": "Cc1ncsc1-c1ccc([C@H](C)NC(=O)[C@@H]2C[C@@H](O)CN2C(=O)[C@@H](c2cc(-c3cnc(N4CC(c5cc6cc(-c7ccccc7O)nnc6cc5Cl)C4)nc3)no2)C(C)C)cc1", "DC50": "> 10 nM"}
